# PROTOCOL_NOTES: NCI Yeast Anticancer Drug Screen. Data for the rad18 strain (AID 177)
# EXPERIMENTAL_CONDITIONS: S. cerevisiae rad18 mutant growth inhibition; at 11.0 µM
This is part of a sample that, as a whole, favours compounds with a hit. Of some 79,000 tested, about 15% had one in any assay. Calls of active or inactive are those of the source. Rule as the data show it: active = growth inhibition above about 70%; inactive = the rest.
Output constraint: value belongs to active, inactive

Asked: Please state the recorded outcome for this compound: Cc1ccc(P(c2ccc(C)cc2)c2ccc(C)cc2)cc1
Given back: inactive

---
Asked: Please state the recorded outcome for this compound: OC(c1ccc(Br)cc1)(c1cccs1)C1CC1 (centres undefined)
Given back: inactive

Asked: Proceed to CCOC(=O)C(NC(=O)c1ccccc1)[CH](c1ccccc1)[Sn]([c]1ccccc1)([c]1ccccc1)[c]1ccccc1 (centres undefined)
Given back: inactive

Asked: Proceed to CC[N+]1(C)CCC(O)(/C=C/c2ccc(Cl)c(Cl)c2)C(C(=O)/C=C/c2ccc(Cl)c(Cl)c2)C1 (centres undefined)
Given back: active

Asked: Proceed to CCCCOc1ccc(Nc2c3ccccc3nc3ccccc23)cc1
Given back: active

Asked: Proceed to CCCC(=O)OC(OC(=O)CCC)c1ccc([N+](=O)[O-])o1
Given back: inactive
